B1: library; numbered along this chain (parent)
chain: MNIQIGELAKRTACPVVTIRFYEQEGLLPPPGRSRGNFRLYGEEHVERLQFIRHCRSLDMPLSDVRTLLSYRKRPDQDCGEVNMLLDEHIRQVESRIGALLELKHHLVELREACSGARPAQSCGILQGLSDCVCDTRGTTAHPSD

Variants of: B1
Assay: sfGFP reporter fluorescence (15 h) (µM FITC); higher = higher leak
Conditions: library round: Round 1; ligand: none
reported endpoint: sfGFP reporter fluorescence
Give the figure by itself; no unit, no explanation.

# query: sfGFP reporter fluorescence of entry N83T R111L
0.0571

# query: sfGFP reporter fluorescence of entry R20W R111L
0.0687

# query: sfGFP reporter fluorescence of entry N83T D135A P143A
0.0625

# query: sfGFP reporter fluorescence of entry N83T D131S D135A
0.0613

# query: sfGFP reporter fluorescence of entry D135A P143Y
0.0639

# query: sfGFP reporter fluorescence of entry P61N E94C
0.0858

# query: sfGFP reporter fluorescence of entry N83T L107C G128I
0.195

# query: sfGFP reporter fluorescence of entry N83S K104V
0.064

# query: sfGFP reporter fluorescence of entry M60L P61N D64K D131C
0.194

# query: sfGFP reporter fluorescence of entry N83T E112M
0.0627

# query: sfGFP reporter fluorescence of entry E43Y P61N
0.0713

# query: sfGFP reporter fluorescence of entry D131A D135E
0.065

# query: sfGFP reporter fluorescence of entry E43M G128I
0.077

# query: sfGFP reporter fluorescence of entry N83Y R111A
0.064

# query: sfGFP reporter fluorescence of entry R33A G36L
0.0634

# query: sfGFP reporter fluorescence of entry M60L D64K K104T
0.509

# query: sfGFP reporter fluorescence of entry M60L D135A
0.0914

# query: sfGFP reporter fluorescence of entry N83R D135A
0.0635

# query: sfGFP reporter fluorescence of entry P61D D64K L107C G128M
1.99

# query: sfGFP reporter fluorescence of entry P30V K104V
0.0683

# query: sfGFP reporter fluorescence of entry G32A D131C
0.0613

# query: sfGFP reporter fluorescence of entry V16C V46Y
0.0651
